Would you kindly list FACS fluorescence for each of these binders?
target.entity: T1, mouse Claudin-6 (CLDN6) (mouse, UniProt Q9Z262 1-219)
T1 construct: whole, on cells; GFP fusion on engineered HEK293T cells; also called Mouse CLDN6; murine CLDN6
T1 sequence (looked up): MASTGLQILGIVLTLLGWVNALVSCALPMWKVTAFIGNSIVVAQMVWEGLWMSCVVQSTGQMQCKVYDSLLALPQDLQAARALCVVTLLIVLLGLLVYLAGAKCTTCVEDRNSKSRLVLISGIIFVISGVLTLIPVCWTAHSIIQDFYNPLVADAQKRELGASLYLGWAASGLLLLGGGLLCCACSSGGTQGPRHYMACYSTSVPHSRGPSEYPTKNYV
method: FACS, 293T clone expressing mouse CLDN6, dose not stated (2nd Ab only 1061.72)

Prompt: GET /values?readout=FACS fluorescence&item= AB4-5 (antibody, V domains shown, humanized) VH: QVQLVQSGAEVKKPGASVKMSCKASGYTFTSYTMHWIRQAPGQGQEWIGYINPSSTYTHYAQKFQGRATLTADTSTSTAYMELSSLRSEDTAVYYCSRGELGGFAYWGQGTLVTVSS VL: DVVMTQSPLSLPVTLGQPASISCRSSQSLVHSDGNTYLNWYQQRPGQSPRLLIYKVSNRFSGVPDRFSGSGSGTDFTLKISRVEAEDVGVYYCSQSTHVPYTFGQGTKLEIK
Response: 2000

Prompt: Request: AB4-3 (antibody, V domains shown, humanized) VH: QVQLVQSGAEVKKPGASVKVSCKASGYTFTSYTMHWVRQAPGQGLEWMGYINPSSTYTHYAQKFQGRVTMTADTSTSTVYMELSSLRSEDTAVYYCSRGELGGFAYWGQGTLVTVSS VL: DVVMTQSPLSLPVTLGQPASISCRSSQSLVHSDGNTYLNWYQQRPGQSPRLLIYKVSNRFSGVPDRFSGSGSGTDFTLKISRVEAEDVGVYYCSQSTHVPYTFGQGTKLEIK
Response: 671

Prompt: Request: AB4-10 (antibody, V domains shown, humanized) VH: QVQLVQSGAEVKKPGASVKMSCKASGYTFTSYTMHWIRQAPGQGQEWIGYINPSSTYTHYIKKFKDRATLTADTSTSTAYMELSSLRSEDTAVYYCSRGELGGFAYWGQGTLVTVSS VL: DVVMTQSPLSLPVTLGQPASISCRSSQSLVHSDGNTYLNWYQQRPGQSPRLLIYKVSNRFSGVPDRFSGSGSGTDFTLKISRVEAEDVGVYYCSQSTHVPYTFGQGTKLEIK
Response: 2650
